Measured values drawn from paper PMC9511441 for this set.

Test system: S. aureus
Test: MIC, broth microdilution
Format: cell-based
Details: Staphylococcus aureus, MRSA, read-out: MIC value, S. aureus N315, MRSA
From the text: We determined the minimal inhibitory concentrations (MIC) of the teicoplanin conjugates for a large panel of Gram-positive bacterial strains, using vancomycin, unmodified teicoplanin, dalbavancin and oritavancin as reference compounds. […] The bacterial strains (see Suppl. Table S5 for all details) were selected to achieve maximum diversity of multidrug-resistance and include strains with known mechanisms of resistance to glycopeptides in clinical use. […]
propertyName: MIC (µg/mL)
Output spec: scalar in µg/mL, unitless text.

[ask] Looking for the measured MIC of CN[C@H](CC(C)C)C(=O)N[C@H]1C(=O)N[C@@H](CC(N)=O)C(=O)N[C@H]2C(=O)N[C@H]3C(=O)N[C@H](C(=O)N[C@H](C(=O)O)c4cc(O)cc(O)c4-c4cc3ccc4O)[C@H](O[C@H]3C[C@](C)(N)[C@@H](O)[C@H](C)O3)c3ccc(c(Cl)c3)Oc3cc2cc(c3O[C@@H]2O[C@H](CO)[C@@H](O)[C@H](O)[C@H]2O[C@H]2C[C@](C)(NCc3ccc(-c4ccc(Cl)cc4)cc3)[C@@H](O)[C@H](C)O2)Oc2ccc(cc2Cl)[C@H]1O [ORI, oritavancin, reference compound] , can you help?
[reply] 0.125

----------
System: E. faecium
Assay: microbe, parasite or virus in culture
Type: cell-based
Details: Enterococcus faecium, read-out: MIC value, E.faecium E1131, VAN,TEI,LNZ/VanA
The entries below come with measured MIC values attached.

Recorded MIC, per entry:
CC(=O)N[C@H]1[C@H](O[C@@H]2c3ccc(c(Cl)c3)Oc3cc4cc(c3O)Oc3ccc(cc3Cl)C[C@H]3NC(=O)[C@H](NC(=O)c5cc(OCCCSCCNC(=N)N)c(OCCCSCCNC(=N)N)c(OCCCSCCNC(=N)N)c5)c5ccc(O)c(c5)Oc5cc(O)cc(c5)[C@H](NC3=O)C(=O)N[C@H]4C(=O)N[C@H]3C(=O)N[C@@H]2C(=O)N[C@H](C(=O)O)c2cc(O)cc(O)c2-c2cc3ccc2O)O[C@H](CO)[C@@H](O)[C@@H]1O : > 8 µg/mL
CC(=O)N[C@H]1[C@H](O[C@@H]2c3ccc(c(Cl)c3)Oc3cc4cc(c3O)Oc3ccc(cc3Cl)C[C@H]3NC(=O)[C@H](n5cc(COCCOCCCC(F)(F)C(F)(F)C(F)(F)C(F)(F)F)nn5)c5ccc(O)c(c5)Oc5cc(O)cc(c5)[C@H](NC3=O)C(=O)N[C@H]4C(=O)N[C@H]3C(=O)N[C@@H]2C(=O)N[C@H](C(=O)O)c2cc(O)cc(O)c2-c2cc3ccc2O)O[C@H](CO)[C@@H](O)[C@@H]1O : > 8 µg/mL
CN[C@H](CC(C)C)C(=O)N[C@H]1C(=O)N[C@@H](CC(N)=O)C(=O)N[C@H]2C(=O)N[C@H]3C(=O)N[C@H](C(=O)N[C@H](C(=O)O)c4cc(O)cc(O)c4-c4cc3ccc4O)[C@H](O)c3ccc(c(Cl)c3)Oc3cc2cc(c3O[C@@H]2O[C@H](CO)[C@@H](O)[C@H](O)[C@H]2O[C@H]2C[C@](C)(N)[C@H](O)[C@H](C)O2)Oc2ccc(cc2Cl)[C@H]1O [VAN, vancomycin, reference compound] : > 64 µg/mL

[ask] # input molecule: "CC(=O)N[C@H]1[C@H](O[C@@H]2c3ccc(c(Cl)c3)Oc3cc4cc(c3O)Oc3ccc(cc3Cl)C[C@H]3NC(=O)[C@H](NC(=O)CCC(F)(F)C(F)(F)C(F)(F)C(F)(F)C(F)(F)C(F)(F)C(F)(F)C(F)(F)F)c5ccc(O)c(c5)Oc5cc(O)cc(c5)[C@H](NC3=O)C(=O)N[C@H]4C(=O)N[C@H]3C(=O)N[C@@H]2C(=O)N[C@H](C(=O)O)c2cc(O)cc(O)c2-c2cc3ccc2O)O[C@H](CO)[C@@H](O)[C@@H]1O" ; wanted: its MIC
[reply] > 8 µg/mL

[ask] Quick one: "CC(=O)N[C@H]1[C@H](O[C@@H]2c3ccc(c(Cl)c3)Oc3cc4cc(c3O)Oc3ccc(cc3Cl)C[C@H]3NC(=O)[C@H](n5cc(COCCCC(F)(F)C(F)(F)C(F)(F)C(F)(F)C(F)(F)C(F)(F)F)nn5)c5ccc(O)c(c5)Oc5cc(O)cc(c5)[C@H](NC3=O)C(=O)N[C@H]4C(=O)N[C@H]3C(=O)N[C@@H]2C(=O)N[C@H](C(=O)O)c2cc(O)cc(O)c2-c2cc3ccc2O)O[C@H](CO)[C@@H](O)[C@@H]1O"
[reply] > 8 µg/mL

[ask] Also "CC(=O)N[C@H]1[C@H](O[C@@H]2c3ccc(c(Cl)c3)Oc3cc4cc(c3O)Oc3ccc(cc3Cl)C[C@H]3NC(=O)[C@H](NC(=N)N)c5ccc(O)c(c5)Oc5cc(O)cc(c5)[C@H](NC3=O)C(=O)N[C@H]4C(=O)N[C@H]3C(=O)N[C@@H]2C(=O)N[C@H](C(=O)O)c2cc(O)cc(O)c2-c2cc3ccc2O)O[C@H](CO)[C@@H](O)[C@@H]1O" ?
[reply] 0.0625 µg/mL

[ask] Now try CN[C@H](CC(C)C)C(=O)N[C@H]1C(=O)N[C@@H](CC(N)=O)C(=O)N[C@H]2C(=O)N[C@H]3C(=O)N[C@H](C(=O)N[C@H](C(=O)O)c4cc(O)cc(O)c4-c4cc3ccc4O)[C@H](O[C@H]3C[C@](C)(N)[C@@H](O)[C@H](C)O3)c3ccc(c(Cl)c3)Oc3cc2cc(c3O[C@@H]2O[C@H](CO)[C@@H](O)[C@H](O)[C@H]2O[C@H]2C[C@](C)(NCc3ccc(-c4ccc(Cl)cc4)cc3)[C@@H](O)[C@H](C)O2)Oc2ccc(cc2Cl)[C@H]1O [ORI, oritavancin, reference compound] .
[reply] 0.125 µg/mL
